Kindly state PBM binding z-score for each of the entries shown.
tested on: LXRb:RXRa (NR concentration 270 nM, RXRa partner concentration 90 nM); assay: PBM binding z-score (relative to random genomic background probes); higher = stronger binding; sequences stand for … in GC…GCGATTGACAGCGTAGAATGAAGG
Lab note: jot the number down without any unit.

Query: Please look up its PBM binding z-score: AATACAGGGTCATCGTAGGCCAGAGTGCGCACAG
Reply: 4.75

Query: Please look up its PBM binding z-score: CCAGACAGGTTAAAGGTAACTCAGTCTGGTACGC
Reply: 1.63

Query: Please look up its PBM binding z-score: ATCGAAAGGTCGTTAGGTGAGTATACAGAAAGGC
Reply: 3.08

Query: Please look up its PBM binding z-score: TTTCCAAGGTGAAGGTCGTTGATCCCTCTGTAGA
Reply: 1.8

Query: Please look up its PBM binding z-score: TCTAGCAAGCCAGAGGGTCACTCAAGAGGTACGG
Reply: 1.04

Query: Please look up its PBM binding z-score: TCGGGTAGGTTAGTCGGGGCATTCAGCCAACATA
Reply: 1.38

Query: Please look up its PBM binding z-score: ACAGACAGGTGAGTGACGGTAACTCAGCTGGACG
Reply: -0.393

Query: Please look up its PBM binding z-score: GGACCAAGGTGAATAGGTCGTTGATGAGTAGGCG
Reply: 0.446

Query: Please look up its PBM binding z-score: GCTCGGAGGACAAGTTCAGAGCTTTGTCCGTAGA
Reply: 0.0203

Query: Please look up its PBM binding z-score: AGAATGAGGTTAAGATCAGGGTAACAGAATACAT
Reply: 2.01

Query: Please look up its PBM binding z-score: TCTAGCAGGCCAGAGGGTCACACAAGAGGTACGG
Reply: 1.83

Query: Please look up its PBM binding z-score: AGTCAAGGTTCACTAGGTAACGTAAGATTCAGCT
Reply: 1.93

Query: Please look up its PBM binding z-score: ATACCAAGGTGATCGTGACGTCGTTGATACTAAC
Reply: 0.547

Query: Please look up its PBM binding z-score: ACTCGGAGGACAAAGGTCAGAGCTACGCCAGTGA
Reply: 3.4
